biological target: HLA-B*18:01; assay: IEDB peptide-MHC binding, purified MHC/direct/fluorescence; filed as Kd, often an IC50 or EC50 that approximates it; bounds were set here for any values at or beyond the usual limits of such assays; conditions: source organism: Amur virus
quantityMeasured: pKd
In simple prose, pKd is minus the logarithm base ten of a concentration in moles per litre.

Returns the measured pKd for the input sequence. Input: "AELGAFFSI" 7.39

###

target: HLA-B*27:05; experiment: IEDB peptide-MHC binding, purified MHC/direct/fluorescence; filed as Kd, often an IC50 or EC50 that approximates it; bounds were set here for any values at or beyond the usual limits of such assays; conditions: source organism: Yellow fever virus
quantityMeasured: Kd

Returns the measured Kd for the input sequence. Input: "FHKRDMRLL" ≥ 20 µM

###

biological target: HLA-B*57:01; experiment: IEDB peptide-MHC binding, purified MHC/competitive/fluorescence; filed as Kd, often an IC50 or EC50 that approximates it; bounds were set here for any values at or beyond the usual limits of such assays; conditions: source organism: Yersinia enterocolitica
quantityMeasured: pKd
In simple prose, pKd is minus the logarithm base ten of a concentration in moles per litre.

Returns the measured pKd for the input sequence. Input: "RTVSVMFFI" 5.91

###

Reported Kd values follow for various sequences
target: HLA-B*58:01; experiment: IEDB peptide-MHC binding, purified MHC/competitive/radioactivity; filed as Kd, often an IC50 or EC50 that approximates it; bounds were set here for any values at or beyond the usual limits of such assays; settings: source organism: Dengue virus 3 Martinique/1243/1999

QASTTEAILP ... 1520 nM

Returns the measured Kd for the input sequence. Input: "ASSMINGVVK" 1300 nM

Continue with "IGIGVLLTW" 11.6 nM

###

target: HLA-B*39:01; assay: IEDB peptide-MHC binding, purified MHC/competitive/fluorescence; filed as Kd, often an IC50 or EC50 that approximates it; bounds were set here for any values at or beyond the usual limits of such assays; conditions: source organism: Homo sapiens
quantityMeasured: Kd

Worked examples, 2 sequences total:
IYDFYYLDY ... ≥ 20 µM
FWAWSVLRV ... ≥ 20 µM

Returns the measured Kd for the input sequence. Input: "TLKDGDFIL" ≥ 20 µM

###

target: HLA-A*02:03; assay: IEDB peptide-MHC binding, purified MHC/direct/fluorescence; filed as Kd, often an IC50 or EC50 that approximates it; bounds were set here for any values at or beyond the usual limits of such assays; conditions: source organism: West Nile virus strain PTRoxo
pKd: −log10 of the molar value.
quantityMeasured: pKd

Returns the measured pKd for the input sequence. Input: "MTRGLLGSY" ≤ 4.70

###

molecular target: HLA-B*27:03; test: IEDB peptide-MHC binding, purified MHC/competitive/fluorescence; filed as Kd, often an IC50 or EC50 that approximates it; bounds were set here for any values at or beyond the usual limits of such assays; conditions: source organism: Vibrio vulnificus CMCP6
quantityMeasured: Kd

Returns the measured Kd for the input sequence. Input: "WLAGFEPSE" ≥ 20 µM

###

molecular target: HLA-A*23:01; assay: IEDB peptide-MHC binding, purified MHC/competitive/fluorescence; filed as Kd, often an IC50 or EC50 that approximates it; bounds were set here for any values at or beyond the usual limits of such assays; conditions: source organism: Vibrio vulnificus CMCP6
quantityMeasured: Kd

Returns the measured Kd for the input sequence. Input: "WLAGFEPSE" ≥ 20 µM
